Cited source for all entries: patent US20160185837A1

tested-on: T1, human GIP receptor (hGIPr) (Homo sapiens, UniProt P48546)
T1 construct: expressed in transfected cells
T1 sequence (P48546 22-466): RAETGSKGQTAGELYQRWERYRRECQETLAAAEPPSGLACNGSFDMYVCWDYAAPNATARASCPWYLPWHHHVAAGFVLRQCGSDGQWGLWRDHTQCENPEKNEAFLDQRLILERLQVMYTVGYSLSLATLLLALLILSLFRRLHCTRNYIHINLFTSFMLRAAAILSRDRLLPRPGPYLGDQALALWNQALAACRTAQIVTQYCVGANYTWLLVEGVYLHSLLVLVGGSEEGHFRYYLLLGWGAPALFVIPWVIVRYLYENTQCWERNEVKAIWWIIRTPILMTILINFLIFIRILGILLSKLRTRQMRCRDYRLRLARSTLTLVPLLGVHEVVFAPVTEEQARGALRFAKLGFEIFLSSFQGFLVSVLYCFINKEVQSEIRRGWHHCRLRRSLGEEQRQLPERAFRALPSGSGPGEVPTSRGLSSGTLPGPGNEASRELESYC
experimental-details: BSA-cAMP assay, cells expressing human GIP receptor
Type: cell-based
conditions: Batch 1; BSA-cAMP assay; read-out: hGIPr cAMP activity EC50
Measured pEC50 accompanies every entry in the list below.
By convention, pEC50 is the negative base-10 log of a molar concentration.

molecule	pEC50
IP321 (protein) YSEGTFISDYSIAMDKIHQQDFVNWLLAGGAAAGGSGSTASSGSGSATGGGGAATHTCPPC	11.02
IP364 (protein) YSEGTFTSDFSKLLERQAIDEFIAWLLKGGAAAGGSGSTASSGSGSATGGGGAATHTCPPC	11.07

Alright, here's another molecule for you.
Field pEC50 (entry IP307 (protein) YSEGTFTSDVSSYMERQAIDEFIAWLLKQGAAAGGSGSTASSGSGSATGGGGAATHTCPPC ) reads 10.04
